Test: soluble fraction after stress (log2 fold change); higher = more stays soluble; pooled small domains, quantitative proteomics;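 also: 20 min heating vs room temperature control held 20 min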
Details: stress: 75 degC
Param threshold (-0.4) applies to soluble fraction (log2); output true when value >= threshold, false when value < threshold.

                           monomer_sequence  label
0  HMLNENNHGEWSIRMSNGLVVRLGRDELNRSLRRSIMAYAGLAPNYRSSIEYIDARYLGGVALKTF   true
1  HMQGVNLTETEKNFIAQVLSPLLKQGQSLYQIRTNHPEIKLSVKTLYTYIESGIFKESGINNFSLRRQ   true
2  HMEILTLEELKRLMAKAKLKQNQISGHAGVSKQQISMILAGKRNITKDVSDNLKANLAEYFP  false
3  HMGESVQVPSYVGMGFREAARKARARDFGVAVSDSIYVPGKPPGEIIAQDPKAESRVKEGRTIYFTVAK   true
4  HMDVNAQAGYDKLQSNQLDGARHDYEQALKTDPNNVDTLLALAAIAQRQGRSADADGYRQRAIDAD   true
5  HMQTTPAGHELLIRYFANGNIRERGMMKDGKRNGIWIFYDESGMEIRKTKYKMGKIISDYDLN  false
6  HMNPLLSAYLAEVERGLQGLTAGRRRLVLRELEAHLLDEAEARGLLTEEDMRALLMEKEPPERLAQEIAQ   true
7  HMGEPVNSPMPGTILRVEVTQGAAVKEGQLLVVLEAMKMENEILAPKDGTVAQVVVQKGSHVETGSPLIVL  false

----------
// values below are reported soluble fraction (log2)
Experiment: soluble fraction after stress (log2 fold change); higher = more stays soluble; pooled small domains, quantitative proteomics
Conditions: stress: 75 degC
Observable: soluble fraction (log2)

>>> df
                            monomer_sequence  observed
 0  HMNPNEVQIPDLVNKTEDEAEQILKDLKLKLVVKSEEYNENIEKGKIISQDPPYQENYTIKEHSEISIVIS     0.335
 1  HMTSEVPVGSNVRIRASTLAGERDFEGTMLPPAGEGLTTLKLVNGYNLSYPSKDVLDIEFLGGAGE      0.14
 2  HMSNIQLAANLQRLRKDHHFTQTQFSKKLNISRQAYSNYETGKRIPDLDIIIRIANIYHISLENLL    -0.305
 3  HMAVFSKKQIFDTAFALFESKGLEAITARNLGKALSSSPAPIYAHYSSITELKNELISVAKDR     -3.06
 4  HMKQESSEDLLNEVIDKVIDSNPDEKNRLLDGELKLVSFFMGQVMKETKGKANPGVINGLIKKKFNI    -0.701
 5  HMFPELTDDEQLIVSTLAKTNDMQINMLAVRTGIPVQRMSALLFSLEMKGVVKMYAGGTYHLL     -2.93
 6  HMPPAPGHDLTEREREVLRLLVEGLSNQEISDRLVISQSTVKNHVSSVLSKLDAANRAEAVALALKNQL    0.0595
 7  HMLPAGSDAILRYLSSGAVKGIGVATAARIVEKFGDETLRILEEEPGRLAEIKGITAAKAKAIGEAFAGQ    -0.356
 8  HMQINLKQSSDEELVKIITVQVHHYEPHTVKAAEAEIERRGIDKMRMAHLVKKVAQENTAVQEIQD     0.297
 9  HMSKKQEQALQSREKLLDAATALFAEHGYRDTSVQAIGEKAGVSRGSIFWHFGSKEGLLWAVVERAFTA     0.303
10  HMHQAVTVTKPARLFTGPDGKGVVRSLDVGMMLYPTGEKQGMMWEVEDELGNKGWVSSTLLELS    0.0637
11  HMEPSERYKALQSLLPDYAKRLKKKGVTRHQLFLEYRLTHPDGYARSRFGTYFQAYLALSHP     -2.32
12  HMAADLIGLEARVTLPLTEDQRGFIETSVRGSLVRRAALSASGRLDRGQRVVILRSEGTTLIVDAL     -3.37
13  HMHPDHRTATVPDAAAGRRFDAVLAELFPQFSRSKLTTWIKSGEVLLNGEVPRPRDAVVGGETVSLNVVL    -0.554
14  HMKNQQLFNIGDRFQVDGVAYRMEKLFPENGTVEVYNLGVGRHKTMSFEEILALWNSGKLLFEI    -0.966
15  HMPTLSKVGSQGEEVRQIQTKLKNWGYLNDRVDGIYGPKTRDAVIWFQKKNGLVADGIAGPATLKAMGIFT    -0.142
16  HMTEKPTREAHILDQLARDGGVLVAALSRELGVSEVTIRSDLRDLEAAGLLQRTHGGAQASSFQTVL   -0.0942

----------
Assay: soluble fraction after stress (log2 fold change); higher = more stays soluble; pooled small domains, quantitative proteomics
Details: stress: 75 degC
Observable: soluble fraction (log2)

In [3]: df
Out[3]:
                            monomer_sequence               observable  observed
 0  HMEPKQIEVPNLVGISSAAARQTLSALGLHAVVKDSIWSETERIDTVLEQNPAGGALIKPEGTVYLRVSR  soluble fraction (log2)   -0.0959
 1  HMTELNNTQRAAVLLLALDEDSAAEVFKHLSAREVQEVSQEMAKLGNISHDQMRQVLDDFYDESEQF  soluble fraction (log2)    -0.127
 2  HMVDVNLLKYYVMESGKSLTDVAAAIGVTPATLHRKMSGESDFYRKEMQDIASYLGLDRDTIDRIFF  soluble fraction (log2)     -1.84
 3  HMKIELTDQQKSLVVDEWNKGEANPPSLLQLIRLAYPDQPHLDGRSKEGKAVKAFLATRDINPLA  soluble fraction (log2)    0.0244
 4  HMGMKTSQKLARQREIVRLIRAQTIRTQAELADALRERAFPVSQPTLSKDIAELGLIKVPLPDSGYRYQLP  soluble fraction (log2)     -1.73
 5  HMNVEKLREMYPEGTKIILQEMQGESRMAKGLKGTVTHVDDAGQIHMKWENGSSLVLNVEVDTFKKIE  soluble fraction (log2)    0.0771
 6  HMVTDSGEIEKLVDEVIDNNPDQVQQFREGKQQVLSYLVGQAMKLSRGKANPNQVNQFLRDKL  soluble fraction (log2)     0.433
 7  HMDNEIIEEEKITTLMITHNMRDAIKYGNRLIMLNEGRVIFDISGEEKKNLTVQELLEKFEK  soluble fraction (log2)     0.242
 8  HMYFNTADLKADSIHYGSTEQSVIKILGEPEYRETFVDNNVSYELFSYKGNLLLSFVENSLVSL  soluble fraction (log2)     0.147
 9  HMNFIPGEKINLKIVQEGKEKNQGVGYLSDGTMVIVENGSQKLGQDVEVVVIKNIQSSAGKIVFGDISK  soluble fraction (log2)     0.158
10  HMGDIMLLFKENGKVYFLVGNQYTYVKNPTELSAIKTMMKQAGYDTHEHTNTTQVAYIKRLATE  soluble fraction (log2)     -2.35
11  HMTNVVSKNKAKEIAMNIINDTVLQGQTAATFKEIVKANGVYVVKIEIQGQEYTSYITKDGKIVFPYGVEV  soluble fraction (log2)     -1.07
12  HMSNKYYETILDWFKSQIMSGELKEGDTIPSERELATRFGVSRVPVREALRILEYIGIVSNTADGMTVQKV  soluble fraction (log2)     -1.72
13  HMTFVHTQIEATKEWIISHPLDKHPAVAVVDSAGSIVIGEVDYISKSIVRLRFTAEFSGKAYL  soluble fraction (log2)     -2.06
14  HMLPYGDRRRHTDNTISRIRELAAALDDSGIADRLNQDGYVTPEGKPFTYAGVRWIRYKYDISGPYERN  soluble fraction (log2)     -1.91
15  HMNNIGSKIKSAKILNNLDDNQLSEITGIDKLQLRSIQDGQVNPTKMELEIISKALKLPTNYFTK  soluble fraction (log2)    -0.115
16  HMEDPAVYYKILQIPPDASLSEIHRAFEKITSAWDPERYPHISSWKETSAKKLQEIRNAYEKLLILRETG  soluble fraction (log2)    -0.269

----------
// values below are reported soluble fraction (log2)
Experiment: soluble fraction after stress (log2 fold change); higher = more stays soluble; pooled small domains, quantitative proteomics
Conditions: stress: 75 degC
Observable: soluble fraction (log2)

>>> print(df.to_string())
                           monomer_sequence  observed
0  HMAKPVKSPLPGSVIKVAVKVGQQIKRGDLLLTLESMKMENSILAEKDGVVKNIHVQAGQSVMQDDLLLDI     -0.88
1  HMYIENIGDYLKSHDIKPSYQRIKVFEYLMQHKNHPTVDMIYKSLVDEIPTLSKTTVYNTLNLFIEKQI     -1.55
2  HMSQDVLLKRSGDQIEVKITEVGEDYLKYKKKGFENGPDFKINTSDVFMVTFANGEKMMFEES    -0.033
3  HMLSYFKIIKNGLVREGPASYYKIAENLEIGTIVQAFEKHDDWYLIKTHSGRIGWIVASDVTPQV     -3.62

Cited source for all entries: the domain aggregation screens of Martell et al. (2025)
